Data provenance is patent US20090053750A1.

Target: T1, class I MHC receptor HLA-A2 on T2 cells (human)
T1 construct: detected on the cell surface with a mouse anti-human HLA-A2 monoclonal antibody and goat anti-mouse IgG F(ab')2-FITC; also called HLA-A2 receptor; HLA-A2 class I MHC
Assay: T2 cells, anti-HLA-A2 flow cytometry after brefeldin A; Assay #1; 0 hr
I'd appreciate it if you could supply fluorescence index values for the items below.
One number for each entry, in F.I..

SLQESGLKV [Filamin B peptide #4]    1.96
KLILGLVWT [Filamin B peptide #7]    1.38
LILGLVWTL [Filamin B peptide #1]    3.46
GQGDVMVFV [Filamin B peptide #6]    2.67

Would you kindly look at the next entry?
Note to self: fluorescence index recorded for GLAPLEVRV [Filamin B peptide #3] was 4.21
